- Test system: MDA-MB-435
- measurement_description: NCI tumour cell line growth inhibition, 48 h
Active and inactive are the calls of the source. Rule as the data show it: active = GI50 up to about 1.1 µM and inactive = higher.
measurement_label: GI50

compound: C=CC/N=C(\S)Nc1sc2c(c1C(=O)OCC)CC(C)CC2 (centres undefined)
measured: 32 µM (inactive)
//
compound: COC(=O)NC1=NNC(=O)c2ccccc2N1
measured: > 100 µM (inactive)
//
compound: CO/C=C(/C(=O)OC)[C@@H]1C[C@@H]1c1ccc2ccccc2c1
measured: 14.7 µM (inactive)
//
compound: N=C(N)N/N=C\c1c(-c2ccccc2)nc2sccn12
measured: 15.6 µM (inactive)
//
compound: CC1=NOC(=O)/C1=C/c1ccc2c(c1)OCO2
measured: 23.4 µM (inactive)
//
compound: CO[C@@]12C[C@@H](C)C3=CCC(C)=C3CC1=C(C)C(=O)O2
measured: > 100 µM (inactive)
//
compound: COc1ccc(C2=NN(C(=O)c3cccnc3)C(O)(c3cc(F)c(Cl)cc3Cl)C2)cc1OC (centres undefined)
measured: 15.2 µM (inactive)
//
compound: CCOC1=C/C(=N\Nc2ccc([N+](=O)[O-])cc2)CCC1
measured: 16.8 µM (inactive)
//
compound: CC(C)=CCC(O)C1=CC(=O)c2c(O)ccc(O)c2C1=O (centres undefined)
measured: 1.31 µM (inactive)
//
compound: C/C=C/OC1C(C2COC(C)(C)O2)OC2OC(C)(C)OC21 (centres undefined)
measured: > 100 µM (inactive)
//
compound: Cn1c(-c2ccc[se]2)ccc1-c1ccc(C=O)[se]1
measured: 11.4 µM (inactive)
//
compound: O=C(Sc1c(-c2ccccc2)c(=O)n(-c2ccccc2)c(=S)n1-c1ccccc1)c1ccco1
measured: > 100 µM (inactive)
//
compound: CC1(C)Oc2ccc3c(=O)cc(-c4ccc(F)cc4)oc3c2C1C(=O)O (centres undefined)
measured: > 100 µM (inactive)
//
compound: O=C1c2c(ccc3c2CCCC3)CC1Cc1ccc2c(c1)CCCC2 (centres undefined)
measured: 34 µM (inactive)
//
compound: CCOC(=O)C(CC(C)C)NC(=O)C(Cc1ccc(N(CCCl)CCCl)cc1)NC(C)=O (centres undefined)
measured: 3.41 µM (inactive)
//
compound: CC(=O)Nc1c(C)cc2c(nc3n2CCC3OC(C)=O)c1[N+](=O)[O-] (centres undefined)
measured: > 100 µM (inactive)
//
compound: O=C(c1ccc(Cl)cc1Cl)N(C(=O)N1CCC(c2ccccc2)CC1)c1ccccc1
measured: 55 µM (inactive)
//
compound: O=[N+]([O-])C(=C(\Cl)NCCO)/C(Cl)=C(/Cl)Br
measured: 1.3 µM (inactive)
//
compound: C[Si](C)(OCCS(=O)(=O)O)C1S(=O)(=O)OCCOS1(=O)=O
measured: 43.5 µM (inactive)
//
compound: CC(=O)OCCOCCN1CCN(C2=C(Cl)C(=O)c3c(O)ccc(O)c3C2=O)CC1
measured: 0.71 µM (active)
//
compound: C/C(=N/Nc1nc(C)cc(O)n1)C(=O)O
measured: > 100 µM (inactive)
//
compound: NC(=O)C(=O)c1ncn(Cc2ccccc2)c1N
measured: > 100 µM (inactive)
//
compound: CC1(C)CC(=O)C2=C(C1)c1c(ccc3ccccc13)NC2c1cn(Cc2ccc(Cl)cc2)c2ccccc12 (centres undefined)
measured: > 100 µM (inactive)
//
compound: CC(=O)NNc1nc(C)c(C(/C=C/c2ccc(NC(C)=O)cc2)=N/NS(=O)(=O)c2ccc(C)cc2)s1
measured: > 100 µM (inactive)
//
compound: CC(=O)Oc1ccccc1/C=C/C(=O)/C=C/c1ccccc1OC(C)=O
measured: 2.15 µM (inactive)
//
compound: CC1(C)C(C(=O)OC(C#N)c2cccc(OCC(=O)OCc3ccccc3)c2)C1(C)C (centres undefined)
measured: > 100 µM (inactive)
//
compound: CC(C)(C)C=C=C(C(C)(C)C)P(=O)(O)O
measured: > 100 µM (inactive)
//
compound: O=C1CSC(c2ccccc2O)N1c1ccc2c(c1)Oc1c(Cl)c3c(c(Cl)c1=N2)Oc1cc(N2C(=O)CSC2c2ccccc2O)ccc1N=3 (centres undefined)
measured: 29.1 µM (inactive)
//
compound: Cc1nc2ccccc2nc1-c1ccc(/N=[N+](\[O-])c2ccc(-c3nc4ccccc4nc3C)cc2)cc1
measured: > 100 µM (inactive)
//
compound: CC(C)(C)OC(=O)N1CCCC1C(=O)NC(c1ccccc1)c1ccccc1 (centres undefined)
measured: > 100 µM (inactive)
//
compound: COc1ccc(NC2=CC(=O)C(=O)c3ccccc32)nn1
measured: 0.197 µM (active)
//
compound: COc1ccc(/C=C2\N=C(N3CCCCC3)NC2=O)cc1
measured: > 100 µM (inactive)
//
compound: CC(=O)/C(=C/N1CCNC1=S)C(=O)Nc1ccccc1C
measured: > 100 µM (inactive)
//
compound: C(=N\c1ccc(-c2cc(-c3ccccc3)nc3ccc4ccccc4c23)cc1)/c1ccccc1
measured: 21.2 µM (inactive)
//
compound: c1csc(-c2cc(-c3ccsc3)c(-c3ccsc3)s2)c1
measured: > 100 µM (inactive)
//
compound: COc1ccc(-n2c(=O)n(C)c(=O)n2-c2c(C)c(C)c(C)c(C)c2C)cc1
measured: > 100 µM (inactive)
//
compound: O=C(O)/C=C/C(=O)Nc1nc[nH]n1
measured: > 100 µM (inactive)
//
compound: NC(Cc1ccc(O)c(O)c1)P(=O)(O)O (centres undefined)
measured: > 100 µM (inactive)
//
compound: Brc1ccc(C2(N3CCCCC3)CCCCC2)s1
measured: 23.9 µM (inactive)
//
compound: Cc1ccc(S(=O)(=O)C2=c3ncccc3=C3C(=O)c4ccccc4C(=O)C32)cc1 (centres undefined)
measured: > 100 µM (inactive)
//
compound: CC1CC(C)C(O)C(C2CC(CC(=O)NC3CCCCC3)CC(=O)O2)C1 (centres undefined)
measured: > 100 µM (inactive)
//
compound: CCCCCC(=O)OCC1(CO)C/C(=C\CC(C(C)C)C(C)C)C(=O)O1 (centres undefined)
measured: > 100 µM (inactive)
//
compound: OCCN(CCO)c1ncnc2[nH]cnc12
measured: > 100 µM (inactive)
//
compound: CCOC(=O)/C=C/C1OC(C)(C)OC1/C=C/C(=O)OCC (centres undefined)
measured: 29 µM (inactive)
